Target: human PAD4 (Homo sapiens)
Construct: human PAD4 (NM_012387), A2P663, was PCR amplified; His-SUMO (N, cleaved yes)
Sequence (Q9UM07 2-663): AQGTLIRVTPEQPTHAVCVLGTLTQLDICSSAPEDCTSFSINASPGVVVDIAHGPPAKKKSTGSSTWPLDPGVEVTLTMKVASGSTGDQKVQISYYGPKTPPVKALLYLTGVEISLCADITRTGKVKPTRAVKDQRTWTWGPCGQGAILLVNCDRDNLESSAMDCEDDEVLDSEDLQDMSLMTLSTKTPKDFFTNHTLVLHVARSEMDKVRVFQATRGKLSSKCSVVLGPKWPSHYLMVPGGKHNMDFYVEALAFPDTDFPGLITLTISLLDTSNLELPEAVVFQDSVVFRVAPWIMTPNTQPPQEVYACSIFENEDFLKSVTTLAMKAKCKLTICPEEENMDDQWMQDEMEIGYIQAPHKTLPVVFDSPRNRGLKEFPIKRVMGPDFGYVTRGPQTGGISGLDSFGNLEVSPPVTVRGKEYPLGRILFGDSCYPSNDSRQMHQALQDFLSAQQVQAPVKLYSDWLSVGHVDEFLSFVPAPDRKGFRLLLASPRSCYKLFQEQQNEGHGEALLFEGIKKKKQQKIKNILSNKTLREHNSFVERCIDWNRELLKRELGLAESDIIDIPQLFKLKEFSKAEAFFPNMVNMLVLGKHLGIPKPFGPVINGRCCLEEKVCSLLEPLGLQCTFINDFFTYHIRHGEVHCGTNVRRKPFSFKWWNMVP
Experiment: In vitro PAD4 BAEE biochemical assay
Details: human PAD4, BAEE substrate; 5 nM PAD4, 2 mM calcium chloride, 3 mM BAEE; geometric mean of multiple experiments
Source text: The PCR product was ligated into linearized pET-SUMO vector (Invitrogen, Carlsbad, CA), which is part of the Champion™ pET SUMO Protein Expression System. […] The enzymatic activity of human PAD4 was monitored in a biochemical assay in the presence or absence of compounds using the small peptidyl arginine mimic BAEE (Na-Benzoyl-L-arginine ethyl ester hydrochloride) as substrate. […] Levels of ammonia were monitored by using an amine coupling reaction and were indicative of PAD4 enzymatic activity. […]
recordedMetric: pIC50
# pIC50 is unitless: minus log10 of the molar concentration; print number only

CCOC(=O)N(C)c1ccc2cc(-c3nc4cc(C(=O)N5[C@H]6CC[C@@H]5[C@H](N)C6)cc(OC)n4c3C)n(CC3CC3)c2n1 : 6.84
COc1cc(C(=O)N2[C@H]3CC[C@@H]2[C@H](N)C3)cc2nc(-c3cc4ccc([C@@H](C)NC(=O)c5cnc(C)o5)nc4n3CC3CC3)c(C)n12 : 7.54
COc1cc(C(=O)N2[C@H]3CC[C@@H]2[C@H](N)C3)cc2nc(-c3cc4ccc(-c5cccnc5-c5cncs5)nc4n3CC3CC3)c(C)n12 : 6.94

Prompt: Using the record for COc1cc(C(=O)N2[C@H]3CC[C@@H]2[C@H](N)C3)cc2nc(-c3cc4ccc(N5CCCCS5(=O)=O)nc4n3CC3CC3)c(C)n12 , report its pIC50.
Response: 7.35

Prompt: Using the record for COc1cc(C(=O)N2[C@H]3CC[C@@H]2[C@H](N)C3)cc2nc(-c3cc4ccc([C@@H](C)NC(=O)C56CC(F)(C5)C6)nc4n3CC3CC3)c(C3CC3)n12 , report its pIC50.
Response: 6.89

Prompt: Using the record for COc1cc(C(=O)N2[C@H]3CC[C@@H]2[C@H](N)C3)cc2nc(-c3cc4ccc(-c5cccnc5C(F)(F)F)nc4n3CC3CC3)c(C)n12 , report its pIC50.
Response: 6.29

Reference for the values: patent US12240862B2
